This collection of values is drawn from ChEMBL document CHEMBL6109106.

assay: Cytotoxicity against mouse RAW264.7 cells assessed as survival rate at 20 uM incubated for 24 hrs by MTT assay (reference value: 100 %); type: toxicity, cell-based; settings: RAW264.7 cells, read-out: Survival
measured_endpoint: viability at 24 h, 20 µM

[
  {
    "molecule": "COc1ccc2c(c1OC)C(CC(=O)Nc1ccccc1)N(C)c1c-2ccc2cc3c(cc12)OCO3 (stereo unspecified)",
    "val": "136%"
  },
  {
    "molecule": "CCCCNC(=O)CC1c2c(ccc(OC)c2OC)-c2ccc3cc4c(cc3c2N1C)OCO4 (stereo unspecified)",
    "val": "92.1%"
  },
  {
    "molecule": "COC(=O)CCC1c2c(ccc3c2OCO3)-c2ccc3cc4c(cc3c2N1C)OCO4 (stereo unspecified)",
    "val": "110%"
  },
  {
    "molecule": "C=C(CC1c2c(ccc3c2OCO3)-c2ccc3cc4c(cc3c2N1C)OCO4)C(=O)OC (stereo unspecified)",
    "val": "111%"
  },
  {
    "molecule": "CN1Cc2c(ccc3c2OCO3)-c2ccc3cc4c(cc3c21)OCO4 [DIHYDROSANGUINARINE]",
    "val": "88.7%"
  },
  {
    "molecule": "CCC(C)C1c2c(ccc3c2OCO3)-c2ccc3cc4c(cc3c2N1C)OCO4 (stereo unspecified)",
    "val": "114%"
  }
]
